Where do these numbers come from? They come from patent US8987256B2.

# target-under-test: soluble guanylate cyclase (sGC) (Rattus norvegicus)
# Sequence (P20595 1-619): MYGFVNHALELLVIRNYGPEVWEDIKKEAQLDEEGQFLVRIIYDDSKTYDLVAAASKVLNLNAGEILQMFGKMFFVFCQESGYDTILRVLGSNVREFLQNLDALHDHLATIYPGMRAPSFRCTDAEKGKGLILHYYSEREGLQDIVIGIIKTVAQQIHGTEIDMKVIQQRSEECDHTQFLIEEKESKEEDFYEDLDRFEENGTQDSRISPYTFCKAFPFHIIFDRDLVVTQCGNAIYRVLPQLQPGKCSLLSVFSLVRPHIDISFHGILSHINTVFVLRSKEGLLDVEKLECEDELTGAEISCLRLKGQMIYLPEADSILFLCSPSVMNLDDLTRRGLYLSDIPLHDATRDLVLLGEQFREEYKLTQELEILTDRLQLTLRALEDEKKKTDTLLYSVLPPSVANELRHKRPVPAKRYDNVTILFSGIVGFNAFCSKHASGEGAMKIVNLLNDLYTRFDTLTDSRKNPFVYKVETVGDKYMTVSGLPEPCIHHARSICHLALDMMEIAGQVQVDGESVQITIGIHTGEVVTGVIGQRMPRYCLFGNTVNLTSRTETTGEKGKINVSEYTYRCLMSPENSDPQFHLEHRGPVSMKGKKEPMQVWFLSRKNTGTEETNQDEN
# Sequence (P19686 1-690 partner): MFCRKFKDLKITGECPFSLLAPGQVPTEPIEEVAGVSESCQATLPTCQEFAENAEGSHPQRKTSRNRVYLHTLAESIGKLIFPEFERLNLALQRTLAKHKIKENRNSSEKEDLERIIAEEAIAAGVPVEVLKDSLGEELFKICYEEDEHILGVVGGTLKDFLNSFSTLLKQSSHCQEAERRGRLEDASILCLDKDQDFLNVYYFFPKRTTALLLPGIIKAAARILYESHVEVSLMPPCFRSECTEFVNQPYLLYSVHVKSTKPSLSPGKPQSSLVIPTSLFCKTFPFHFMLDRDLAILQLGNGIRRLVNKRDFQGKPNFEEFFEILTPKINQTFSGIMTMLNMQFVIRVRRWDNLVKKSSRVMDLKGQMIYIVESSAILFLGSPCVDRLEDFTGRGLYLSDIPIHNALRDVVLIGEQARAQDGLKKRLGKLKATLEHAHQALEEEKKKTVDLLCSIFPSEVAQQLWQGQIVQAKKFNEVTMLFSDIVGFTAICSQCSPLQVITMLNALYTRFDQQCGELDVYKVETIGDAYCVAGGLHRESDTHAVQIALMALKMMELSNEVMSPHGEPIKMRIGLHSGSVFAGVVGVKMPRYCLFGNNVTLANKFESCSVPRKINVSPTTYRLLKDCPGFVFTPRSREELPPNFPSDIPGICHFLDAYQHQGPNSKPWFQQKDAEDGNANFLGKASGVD
# procedure-details: Activating action at the sGC enzyme in vitro (PPi detection, luciferase)
# test-parameters: read-out: EC50 (concentration at 50% of maximum efficacy), activating action at the sGC enzyme
pEC50: −log10 of the molar value.
result-type: pEC50

[I] Cc1ccc(=O)n(Cc2ccc(C(C(=O)Nc3cccc(CC4(C(=O)O)CC4)c3)C3CCCC3)cc2)n1 (stereo not drawn)
[II] CC(C(C(=O)Nc1cccc(CCC(=O)O)c1)c1ccc(CN2N=C(c3ccccc3)OCC2=O)cc1)C(F)(F)F (single isomer, unassigned)
# argmax over pEC50 for candidates I and II Please indicate the selected item by its label.
II
(II: 7.52, I: 7.23)
